Target: human DPP-IV (Homo sapiens, UniProt P27487)
Sequence (P27487 31-766): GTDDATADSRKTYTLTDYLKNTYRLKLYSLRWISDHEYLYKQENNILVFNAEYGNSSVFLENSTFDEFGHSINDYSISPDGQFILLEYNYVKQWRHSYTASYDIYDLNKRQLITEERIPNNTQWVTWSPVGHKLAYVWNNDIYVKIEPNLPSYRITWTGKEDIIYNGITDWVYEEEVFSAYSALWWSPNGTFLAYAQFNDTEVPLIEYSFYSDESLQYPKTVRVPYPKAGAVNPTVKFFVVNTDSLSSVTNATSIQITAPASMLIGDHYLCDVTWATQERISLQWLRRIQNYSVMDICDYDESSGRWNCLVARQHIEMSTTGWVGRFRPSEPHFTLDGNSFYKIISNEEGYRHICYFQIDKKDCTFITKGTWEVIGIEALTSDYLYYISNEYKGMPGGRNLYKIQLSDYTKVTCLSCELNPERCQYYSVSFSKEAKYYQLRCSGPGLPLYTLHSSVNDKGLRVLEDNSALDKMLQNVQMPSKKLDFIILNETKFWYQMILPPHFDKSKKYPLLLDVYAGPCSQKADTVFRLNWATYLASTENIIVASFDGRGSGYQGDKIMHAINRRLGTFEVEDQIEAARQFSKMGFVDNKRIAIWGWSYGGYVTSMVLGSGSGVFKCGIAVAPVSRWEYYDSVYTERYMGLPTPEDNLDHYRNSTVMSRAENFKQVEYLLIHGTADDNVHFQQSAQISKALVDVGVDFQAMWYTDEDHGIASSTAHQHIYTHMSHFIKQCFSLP
Experiment: DPP-IV activity assay (fluorometric / colorimetric), IC50 determination
Conditions: natural human DPP-IV from human plasma pool or recombinant human DPP-IV; 37° C., pH 7.8
TEST READOUT: IC50 (nM)
Write the number in nM without appending the unit.

[Q] What is its IC50 for human DPP-IV (Homo sapiens, UniProt P27487)? Entry: NCc1c(N)nc(-c2cccc(F)c2)nc1-c1ccc(Cl)cc1Cl
[A] 0.2

====

Molecular target: human DPP-IV (Homo sapiens)
Assay: DPP-IV activity assay (fluorometric / colorimetric), IC50 determination
// returns class 0 unless IC50 is strictly below 400 nM, in which case class 1

[[record]]
molecular_string = "NCc1c(N)nc(N2CCCCCC2)nc1-c1ccc(Cl)cc1Cl"
category = "class 1"

[[record]]
molecular_string = "CSc1nc(N)c(CN)c(-c2ccc(Cl)cc2Cl)n1"
category = "class 1"

[[record]]
molecular_string = "Cc1c(-c2ccccc2)nc(N)c(CN)c1-c1ccc(Cl)cc1Cl"
category = "class 0"

[[record]]
molecular_string = "Cc1ccc(-c2nc(-c3ccccc3)nc(N)c2CN)c(C)c1"
category = "class 1"


[Q] Strictly below 400 nM in IC50? NCc1c(N)nc(-c2cc3ccccc3o2)nc1-c1ccc(Cl)cc1Cl
[A] class 1

# credit: patent US7022718B2
